tested on: MDA-N; assay: NCI tumour cell line growth inhibition, 48 h
READOUT TYPE: TGI

Use these answered entries as a reference point.
> print(dat)
                                   molecule  result.value
1  O=c1[nH]nc(-c2ccc([N+](=O)[O-])cc2)[nH]1      > 100 µM
2  Nc1ccc2c(SCC(=O)Nc3ccccc3-c3ccccc3NC(=O)CSc3c4ccccc4nc4cc(N)ccc34)c3ccccc3nc2c1     > 69.5 µM
3  O=C(O[C@@H](/C=C/c1ccccc1)P1(=O)N(Cc2ccccc2)[C@@H]2CCCC[C@H]2N1Cc1ccccc1)c1ccccc1      > 100 µM

Give TGI for each listed item.
1. O=c1n(CCCN2CCOCC2)nc2n1-c1ccc3ccccc3c1SC2
2. OC(CCN1CCN(CCOC(c2ccc(F)cc2)c2ccc(F)cc2)CC1)c1ccc(Br)cc1 (stereo not drawn)
3. Cc1ccc(S(=O)(=O)N2CCc3cc(O)c([N+](=O)[O-])cc32)cc1
4. O=C(O)C12C3C4(C(=O)O)C1C1(C(=O)O)C2C3(C(=O)O)C41 (stereo not drawn)

1. 24.1 µM
2. 6.93 µM
3. > 100 µM
4. > 100 µM
